molecular target: UniProt O95948; experiment: Binding to OC2-HOX measured by surface plasmon resonance; details: based on 2:2 Langmuir model simulation of the bimolecular interactions, read-out: binding affinity KD
Sequence (O95948 426-485 limits assumed): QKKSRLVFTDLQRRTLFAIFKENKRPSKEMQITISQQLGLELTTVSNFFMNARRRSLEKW
pKd: −log10 of the molar value.
Measured pKd by item
QUANTITY KIND: pKd

                                   molecule  reported
0  NC(=O)C1CCCCN1C(=O)NCCc1ccc(O)c(O)c1O (centres unmarked) [CSRM123]      5.94
1  O=C(CNC(=O)Cc1ccc(O)c(O)c1O)NO [CSRM843]      6.93
